Reference for the values: ChEMBL document CHEMBL1149757

- test-description: Cytotoxicity against human […] cells after 7 days by MTT assay
- Format: cell-based
quantity-measured: CC50 at 168 h

1) CCN(CC)Cc1cc(O)cc(Nc2ccnc3cc(Cl)ccc23)c1: > 25 µM
2) CCN(CC)Cc1cccc(Nc2ccnc3cc(Cl)ccc23)c1O: > 25 µM
3) CCN(CC)Cc1cc(N)cc(Nc2ccnc3cc(Cl)ccc23)c1: > 25 µM
4) CCN(CC)CCCC(C)Nc1ccnc2cc(Cl)ccc12 (centres undefined): > 32 µM
